Target: T1, huNotch2-EGF6-10 (human, UniProt Q04721 219-418)
T1 construct: also called human Notch2 EGF6-10
T1 sequence: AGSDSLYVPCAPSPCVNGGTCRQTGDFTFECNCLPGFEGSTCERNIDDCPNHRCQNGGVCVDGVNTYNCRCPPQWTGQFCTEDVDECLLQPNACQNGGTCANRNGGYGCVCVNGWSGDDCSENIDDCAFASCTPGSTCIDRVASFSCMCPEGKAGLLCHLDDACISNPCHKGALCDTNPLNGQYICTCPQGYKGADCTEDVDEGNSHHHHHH
Assay: SPR BIAcore, separate experiment, substantially as for Table 4
measuredProperty: koff (s⁻¹)
Write the value in s⁻¹ as a bare number.

binder	koff [s⁻¹]
hu.3107.L6H15 (antibody, V domains shown, also called hu.Notch-3107.L6H15) VH: EVQLVQSGAEVKKPGESLKISCKGSGYTFSNYVIHWVRQMPGKGPEWTGYIIPGSGGTKFNEKFKGQATISVDKSITTAYLQWSSLKASDTAMYYCARDGAGSFTYWGQGTLVTVSS VL: DVVMTQSPDSLAVSLGERATINCRSSQSLVHSDGNTYLHWFQQKPGQPPKLLIYRISNRFSGVPDRFSGSGSGTDFTLTISSLQAEDVAVYYCLQSTHFPDTFGGGTKVEIK	0.00365

Could you now consider this next binder?
Name the recorded koff for hu.3107.L7H13 (antibody, V domains shown, also called hu.Notch-3107.L7H13) VH: EVQLVQSGAEVKKPGASVKVSCKASGYTFSNYVIHWVRQAPGQGPEWTGYIIPGSGGTKFNEKFKGRATSTVDTSITTAYMELSRLRSDDTVVYYCARDGAGSFTYWGQGTLVTVSS VL: DIVMTQSPDSLAVSLGERATINCRSSQSLVHSDGNTYLHWYQQKPGQPPKLLIYRISNRFSGVPDRFSGSGSGTDFTLTISSLQAEDVAVYYCLQSTHFPDTFGGGTKVEIK .
0.00353
